Test system: OVCAR-8
protocol-details: NCI tumour cell line growth inhibition, 48 h
Active and inactive are the calls of the source. Cut-off read from the data, not from the text of the source: active = GI50 up to about 1.1 µM and inactive = higher.
Outcomes you can answer with include only these: TRUE for active, FALSE for inactive

>>> assigned_label("COc1ccc2cc(C(C)C(=O)N3C(=O)OCC3(C)C)ccc2c1 (stereo unspecified)")
"FALSE"

Would you mind telling me which call this test gave "CC1(C)[C@@H]2CC[C@@]1(C)[C@H](O)[C@@H]2SCc1ccccc1" ? FALSE

Status in this test for "COC(=O)Cc1cc(=O)n2c([nH]c3ccccc32)c1C#N" ? FALSE

What is the recorded call for this molecule in the test? "CCN(CC)CCCNc1nccc2c(C)c3[nH]c4ccncc4c(=O)c3cc12" TRUE

Status in this test for "COc1ccc(C2=C(Cl)c3cc(OC)c(OC)cc3C2)cc1OC" ? FALSE

Please share the test call associated with "CC1(C)C(=O)N(CCCCCCN2C(=O)C(C)(C)c3ccccc32)c2ccccc21" . FALSE

What classification did "CCNCCCNc1c2ccccc2nc2ccccc12" end up with in this test? TRUE

Identify the outcome logged in this assay for the molecule shown: "Cc1cc(Cl)ccc1NC(=O)/C(Cc1nc2ccc(C(=O)c3ccccc3)cc2nc1O)=N/NC(=O)c1ccncc1" FALSE

Called result for "BrCc1ccc(CBr)c2c1-c1c(CBr)ccc3ccc(CBr)c-2c13" FALSE

Give the logged outcome of this assay for the following molecule: COc1cc(C2c3cc4c(cc3OC(NCCO)C2C)OCO4)cc(OC)c1OC (stereo unspecified) FALSE

How was CCOC(=O)COc1ccccc1/C=C1\CCC(CN(C)C)C1=O (stereo unspecified) classified in this test? FALSE

Measured values drawn from ChEMBL document CHEMBL1201862 for this set.
